src = ChEMBL document CHEMBL3879899

biological target: Neuromedin-B receptor (Rattus norvegicus, UniProt P24053); experiment: Displacement of [125I]-NMB from NMB receptor in rat C6 cells; type: cell-based
Sequence (P24053 whole entry): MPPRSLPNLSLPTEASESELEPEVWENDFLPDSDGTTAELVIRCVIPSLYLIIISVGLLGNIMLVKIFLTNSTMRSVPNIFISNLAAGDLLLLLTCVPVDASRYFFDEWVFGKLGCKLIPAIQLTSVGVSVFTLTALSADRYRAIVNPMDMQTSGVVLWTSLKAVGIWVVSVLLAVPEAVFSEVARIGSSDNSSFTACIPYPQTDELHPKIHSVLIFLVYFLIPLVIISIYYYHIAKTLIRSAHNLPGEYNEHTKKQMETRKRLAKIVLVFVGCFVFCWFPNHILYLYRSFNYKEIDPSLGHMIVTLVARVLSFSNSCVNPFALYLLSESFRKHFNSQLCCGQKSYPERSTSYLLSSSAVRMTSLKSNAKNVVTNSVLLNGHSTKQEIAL
pIC50: −log10 of the molar value.
Catalogue of molecules with associated pIC50

- Molecule: "CSCC[C@H](NC(=O)[C@H](Cc1ccccc1)NC(=O)[C@H](Cc1c[nH]cn1)NC(=O)CNC(=O)[C@@H](NC(=O)[C@H](C)NC(=O)[C@H](Cc1c[nH]c2ccccc12)NC(=O)[C@H](CC(C)C)NC(=O)c1ccc(NC(=O)CNC(=O)CN2CCN(CC(=O)O)CCN(CC(=O)O)CCN(CC(=O)O)CC2)cc1)C(C)O)C(N)=O (stereo partly drawn)"
  Study System: "Neuromedin-B receptor (Rattus norvegicus, UniProt P24053)"
  pIC50: "9.10 to 10.15"
- Molecule: "CSCC[C@H](NC(=O)[C@H](CC(C)C)NC(=O)[C@H](Cc1cnc[nH]1)NC(=O)CNC(=O)[C@@H](NC(=O)[C@H](C)NC(=O)[C@H](Cc1c[nH]c2ccccc12)NC(=O)[C@H](CCC(N)=O)NC(=O)CN1CCN(CC(=O)O)CCN(CC(=O)O)CCN(CC(=O)O)CC1)C(C)C)C(N)=O"
  Study System: "Neuromedin-B receptor (Rattus norvegicus, UniProt P24053)"
  pIC50: "< 6.60"
- Molecule: "CSCC[C@H](NC(=O)[C@H](CC(C)C)NC(=O)[C@H](Cc1cnc[nH]1)NC(=O)CNC(=O)[C@@H](NC(=O)[C@H](C)NC(=O)[C@@H](N)Cc1c[nH]c2ccccc12)C(C)C)C(N)=O"
  Study System: "Neuromedin-B receptor (Rattus norvegicus, UniProt P24053)"
  pIC50: "< 6.10"
